- Tested system: pooled human IgG (human IgG1, 2, 3 and 4)
Measure: Enzyme Activity Endpoint Assay: Fab′2 (ng/µL)
State the answer as a number, implicitly in ng/µL.

| Protein | Measured value |
| --- | --- |
| PRT-414 (protein) MTITSVWTKGVTPPTPEDFRYNNEDVLHAPYVANQGWYDITKTFDGKDNLLCGAATAGNMLHWWFDQNKEEIERYLKKHPEKQKIIFGNQELFDVKAAIDTKDSQTNSKLFNYFRDKAFPNLSARQLGVMPDLVLDMFINGYYLNLGKTQSTDVNRPYQDKDKRGGIFDAVFTRGDQTTLLTARHDLKNKGLNEISDLIKQELTEGKALALSHTYANVRINHVINLWGADFDAEGNLIAIYVTDSDANASIGMKKYFVGVNANGKVAISAKKIEGDNIGAQVLGLFTLSTGQDIWQKLS | 496 |

## Input Report Enzyme Activity Endpoint Assay: Fab′2 for PRT-614 (protein) MQITSVWTKGVKPLTPEQFRYNNEDVIHAPYLAHQGWYDITKAFDGKDNLLCGAATAGNMLHWWFDQNKTEIEAYLSKHPEKQKIIFNNQELFDLRAAIDTKDSQTNSQLFNYFRDKAFPNLSARQLGVMPDLVLDMFINGYYLNVFKTQSTDVNRPYQDKDKRGGIFDDVFTRGDQTTLLTARHDLKNGGLNDISTIIKQELTEGRALALSHTYANVSISHVINLWGADFNAEGNLEAIYVTDSDANASIGMKKYKVGINAHGHVAISAKKIEGENIGAQVLGLFTLSSGKDIWQKLSLEHHHHHH
## Output 0
